Target: GABA-A receptor; alpha-1/beta-3/gamma-2 (Homo sapiens) (UniProt P14867+P18507+P28472)
Assay: Efficacy against recombinant human GABA-Aalpha1 receptor plus beta-3-gamma-2 expressed in L(tk-) cells by modulation of chloride ion flux relative to chlordiazepoxide
Type: cell-based
Each record is given true if its reported Efficacy is strictly below 0.2. Records at or above 0.2 are given false.

q: Criterion: Efficacy strictly below 0.2. Is it met by CC(C)(O)c1ccn2c(-c3ccc(F)c(-c4ccc(F)cn4)c3)cnc2n1 ?
a: false

q: Criterion: Efficacy strictly below 0.2. Is it met by CC(C)(O)c1ccn2c(-c3ccc(F)c(-c4ncccc4C#N)c3)cnc2n1 ?
a: false

q: Criterion: Efficacy strictly below 0.2. Is it met by CC(C)(O)c1ccn2c(-c3ccc(F)c(-c4ncc(F)cc4F)c3)cnc2n1 ?
a: true

q: Criterion: Efficacy strictly below 0.2. Is it met by CC(C)(O)c1ccn2c(-c3ccc(F)c(-c4ccncc4C#N)c3)cnc2n1 ?
a: false

q: Criterion: Efficacy strictly below 0.2. Is it met by CC(C)(O)c1ccn2c(-c3ccc(F)c(-c4ccncc4)c3)cnc2n1 ?
a: true

q: Criterion: Efficacy strictly below 0.2. Is it met by CC(C)(O)c1ccn2c(-c3ccc(F)c(-c4cccnc4)c3)cnc2n1 ?
a: true

q: Criterion: Efficacy strictly below 0.2. Is it met by CC(C)(O)c1ccn2c(-c3ccc(F)c(-c4ncccc4F)c3)cnc2n1 ?
a: false

---

Biological target: GABA-A receptor; alpha-2/beta-3/gamma-2 (Homo sapiens, UniProt P18507+P28472+P47869)
Sequence (P18507 whole entry): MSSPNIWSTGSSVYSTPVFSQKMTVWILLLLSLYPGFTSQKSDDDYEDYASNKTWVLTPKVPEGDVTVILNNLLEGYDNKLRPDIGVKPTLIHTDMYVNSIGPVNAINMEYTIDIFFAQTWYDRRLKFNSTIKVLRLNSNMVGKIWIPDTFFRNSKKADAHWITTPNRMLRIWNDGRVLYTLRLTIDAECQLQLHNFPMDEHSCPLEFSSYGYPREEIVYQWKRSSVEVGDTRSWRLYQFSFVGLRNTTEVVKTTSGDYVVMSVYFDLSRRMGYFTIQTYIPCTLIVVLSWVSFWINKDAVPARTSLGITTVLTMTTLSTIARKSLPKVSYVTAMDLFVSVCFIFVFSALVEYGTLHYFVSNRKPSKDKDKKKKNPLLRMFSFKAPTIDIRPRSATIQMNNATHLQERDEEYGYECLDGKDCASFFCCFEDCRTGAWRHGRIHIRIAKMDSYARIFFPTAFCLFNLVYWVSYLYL
Sequence (P28472 whole entry): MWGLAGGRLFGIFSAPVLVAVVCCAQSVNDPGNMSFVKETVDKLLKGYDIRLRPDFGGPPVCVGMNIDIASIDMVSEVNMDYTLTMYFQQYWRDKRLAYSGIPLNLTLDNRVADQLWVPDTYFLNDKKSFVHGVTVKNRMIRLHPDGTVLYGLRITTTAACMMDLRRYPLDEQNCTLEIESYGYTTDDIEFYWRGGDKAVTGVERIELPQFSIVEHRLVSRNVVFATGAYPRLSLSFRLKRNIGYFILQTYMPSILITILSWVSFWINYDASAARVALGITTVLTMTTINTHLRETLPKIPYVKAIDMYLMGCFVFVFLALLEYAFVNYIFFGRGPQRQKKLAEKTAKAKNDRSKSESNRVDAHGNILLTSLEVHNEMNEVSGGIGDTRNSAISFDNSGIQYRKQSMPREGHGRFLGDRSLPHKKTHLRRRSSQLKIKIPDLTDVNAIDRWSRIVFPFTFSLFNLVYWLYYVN
Sequence (P47869 whole entry): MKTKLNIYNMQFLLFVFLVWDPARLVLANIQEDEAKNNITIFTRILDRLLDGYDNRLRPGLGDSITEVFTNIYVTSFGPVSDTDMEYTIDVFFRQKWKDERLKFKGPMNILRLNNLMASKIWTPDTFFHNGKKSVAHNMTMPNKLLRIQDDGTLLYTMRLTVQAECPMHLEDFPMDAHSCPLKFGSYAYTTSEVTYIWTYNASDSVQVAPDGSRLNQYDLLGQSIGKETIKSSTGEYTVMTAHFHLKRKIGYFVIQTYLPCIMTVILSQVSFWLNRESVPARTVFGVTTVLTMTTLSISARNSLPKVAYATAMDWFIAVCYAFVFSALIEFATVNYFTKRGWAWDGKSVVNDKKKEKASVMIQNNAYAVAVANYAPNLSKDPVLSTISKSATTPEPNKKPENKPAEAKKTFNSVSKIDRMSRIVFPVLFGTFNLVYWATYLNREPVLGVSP
Assay: Displacement of [3H]Ro 15-1788 from recombinant human GABA-Aalpha2 receptor plus beta-3-gamma-2 expressed in mouse L(tk-) cells
Type: cell-based
Each record is given t if its reported Ki is strictly below 2 nM. Records at or above 2 nM are given f.

q: Criterion: Ki strictly below 2 nM. Is it met by CC(C)(O)c1cnn2c(-c3ccc(F)c(-c4ncc(F)cc4F)c3)cnc2n1 ?
a: f

q: Criterion: Ki strictly below 2 nM. Is it met by CC(C)(O)c1cnn2c(-c3ccc(F)c(-c4ccncc4)c3)cnc2n1 ?
a: t

q: Criterion: Ki strictly below 2 nM. Is it met by CC(C)(O)c1cnn2c(-c3ccc(F)c(-c4ccc(F)cn4)c3)cnc2n1 ?
a: f

q: Criterion: Ki strictly below 2 nM. Is it met by CC(C)(O)c1cnn2c(-c3ccc(F)c(-c4ccncc4C#N)c3)cnc2n1 ?
a: t

q: Criterion: Ki strictly below 2 nM. Is it met by CC(C)(O)c1cnn2c(-c3ccc(F)c(-c4ncccc4C#N)c3)cnc2n1 ?
a: f

---

Exercise: for every item that follows, state its recorded bioavailability.
Assay: Oral bioavailability in Beagle dog at 1 mg/kg, iv or 1 mg/kg, po
Assay type: ADME, organism-based, Canis lupus familiaris
Details: in vivo
The reply should be a number in %, with the unit left off.

For this molecule ( CC(C)(O)c1ccn2c(-c3ccc(F)c(-c4cccnc4)c3)cnc2n1 ), measured bioavailability is 46

For this molecule ( CC(C)(O)c1cnn2c(-c3ccc(F)c(-c4ncccc4C#N)c3)cnc2n1 ), measured bioavailability is 99

For this molecule ( CC(C)(O)c1cnn2c(-c3ccc(F)c(-c4ncc(F)cc4F)c3)cnc2n1 ), measured bioavailability is 64

---

Molecular target: GABA-A receptor; alpha-3/beta-3/gamma-2 (Homo sapiens) (UniProt P18507+P28472+P34903)
Assay: Efficacy against recombinant human GABA-Aalpha3 receptor plus beta-3-gamma-2 expressed in L(tk-) cells by whole cell patch clamp method relative to chlordiazepoxide
Assay type: functional, cell-based
Each record is given Satisfied if its reported Efficacy is strictly below 0.4. Records at or above 0.4 are given Not satisfied.

q: Criterion: Efficacy strictly below 0.4. Is it met by CC(C)(O)c1cnn2c(-c3ccc(F)c(-c4cccnc4)c3)cnc2n1 ?
a: Satisfied

q: Criterion: Efficacy strictly below 0.4. Is it met by CC(C)(O)c1cnn2c(-c3ccc(F)c(-c4ncccc4C#N)c3)cnc2n1 ?
a: Not satisfied

q: Criterion: Efficacy strictly below 0.4. Is it met by CC(C)(O)c1cnn2c(-c3ccc(F)c(-c4ccncc4C#N)c3)cnc2n1 ?
a: Satisfied

q: Criterion: Efficacy strictly below 0.4. Is it met by CC(C)(O)c1cnn2c(-c3ccc(F)c(-c4ncccc4F)c3)cnc2n1 ?
a: Not satisfied

q: Criterion: Efficacy strictly below 0.4. Is it met by CC(C)(O)c1cnn2c(-c3ccc(F)c(-c4ncc(F)cc4F)c3)cnc2n1 ?
a: Not satisfied

q: Criterion: Efficacy strictly below 0.4. Is it met by CC(C)(O)c1cnn2c(-c3ccc(F)c(-c4ccc(F)cn4)c3)cnc2n1 ?
a: Not satisfied

q: Criterion: Efficacy strictly below 0.4. Is it met by CC(C)(O)c1ccn2c(-c3ccc(F)c(-c4cccnc4)c3)cnc2n1 ?
a: Not satisfied

q: Criterion: Efficacy strictly below 0.4. Is it met by CC(C)(O)c1cnn2c(-c3ccc(F)c(-c4ncncc4C#N)c3)cnc2n1 ?
a: Satisfied

---

Exercise: for every item that follows, state its recorded bioavailability.
Assay: Oral bioavailability in Sprague-Dawley rat at 1 mg/kg, iv or 1 mg/kg, po
Assay type: ADME, organism-based
Conditions: in vivo
The reply should be a number in %, with the unit left off.

For this compound ( CC(C)(O)c1cnn2c(-c3ccc(F)c(-c4ncc(F)cc4F)c3)cnc2n1 ), measured bioavailability is 69

For this compound ( CC(C)(O)c1cnn2c(-c3ccc(F)c(-c4ncccc4C#N)c3)cnc2n1 ), measured bioavailability is 102

---

Exercise: for every item that follows, state its recorded half-life.
Assay: Half life in Beagle dog at 1 mg/kg, iv or 1 mg/kg, po
Format: ADME, organism-based, Canis lupus familiaris
Details: in vivo
The reply should be a number in h, with the unit left off.

For this compound ( CC(C)(O)c1cnn2c(-c3ccc(F)c(-c4ncccc4C#N)c3)cnc2n1 ), measured half-life is 9.7

For this compound ( CC(C)(O)c1ccn2c(-c3ccc(F)c(-c4cccnc4)c3)cnc2n1 ), measured half-life is 1

---

Exercise: for every item that follows, state its recorded pKi.
Target: GABA-A receptor; alpha-5/beta-3/gamma-2 (Homo sapiens, UniProt P18507+P28472+P31644)
Sequence (P18507 whole entry): as the sequence (P18507 whole entry) above
Sequence (P28472 whole entry): as the sequence (P28472 whole entry) above
Sequence (P31644 whole entry): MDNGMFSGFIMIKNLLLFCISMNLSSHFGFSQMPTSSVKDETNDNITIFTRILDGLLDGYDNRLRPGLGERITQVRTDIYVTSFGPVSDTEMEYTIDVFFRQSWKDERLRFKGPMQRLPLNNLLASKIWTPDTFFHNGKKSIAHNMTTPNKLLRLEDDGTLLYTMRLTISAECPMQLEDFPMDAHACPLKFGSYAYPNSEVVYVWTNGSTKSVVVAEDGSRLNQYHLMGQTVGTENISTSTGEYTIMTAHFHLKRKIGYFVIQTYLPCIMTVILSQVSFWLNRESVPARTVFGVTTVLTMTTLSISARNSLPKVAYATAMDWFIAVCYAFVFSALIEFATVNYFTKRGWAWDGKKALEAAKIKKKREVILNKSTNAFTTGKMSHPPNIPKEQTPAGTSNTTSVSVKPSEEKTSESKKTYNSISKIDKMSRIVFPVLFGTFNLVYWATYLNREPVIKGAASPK
Assay: Displacement of [3H]Ro 15-1788 from recombinant human GABA-Aalpha5 receptor plus beta-3-gamma-2 expressed in L(tk-) cells
Reminder that pKi means the negative base-10 logarithm of the concentration expressed in mol/L.

For this compound ( CC(C)(O)c1cnn2c(-c3ccc(F)c(-c4ncc(F)cc4F)c3)cnc2n1 ), measured pKi is 8.57

For this compound ( CC(C)(O)c1ccn2c(-c3ccc(F)c(-c4ncc(F)cc4F)c3)cnc2n1 ), measured pKi is 8.95

For this compound ( CC(C)(O)c1cnn2c(-c3ccc(F)c(-c4ccncc4C#N)c3)cnc2n1 ), measured pKi is 9.49

For this compound ( CC(C)(O)c1ccn2c(-c3ccc(F)c(-c4ccncc4C#N)c3)cnc2n1 ), measured pKi is 9.85

For this compound ( CC(C)(O)c1ccn2c(-c3ccc(F)c(-c4ccncc4)c3)cnc2n1 ), measured pKi is 9.51

For this compound ( CC(C)(O)c1ccn2c(-c3ccc(F)c(-c4ncccc4C#N)c3)cnc2n1 ), measured pKi is 9.17

For this compound ( CC(C)(O)c1cnn2c(-c3ccc(F)c(-c4ccc(F)cn4)c3)cnc2n1 ), measured pKi is 8.91

For this compound ( CC(C)(O)c1ccn2c(-c3ccc(F)c(-c4ncccc4F)c3)cnc2n1 ), measured pKi is 8.91

For this compound ( CC(C)(O)c1ccn2c(-c3ccc(F)c(-c4ccc(F)cn4)c3)cnc2n1 ), measured pKi is 9.38

For this compound ( CC(C)(O)c1cnn2c(-c3ccc(F)c(-c4ccncc4)c3)cnc2n1 ), measured pKi is 9.30

For this compound ( CC(C)(O)c1cnn2c(-c3ccc(F)c(-c4ncccc4C#N)c3)cnc2n1 ), measured pKi is 8.03

For this compound ( CC(C)(O)c1cnn2c(-c3ccc(F)c(-c4cccnc4)c3)cnc2n1 ), measured pKi is 9.30

For this compound ( CC(C)(O)c1cnn2c(-c3ccc(F)c(-c4ncccc4F)c3)cnc2n1 ), measured pKi is 8.80

---

Exercise: for every item that follows, state its recorded Efficacy.
Target: GABA-A receptor; alpha-3/beta-3/gamma-2 (Homo sapiens) (UniProt P18507+P28472+P34903)
Test: Efficacy against recombinant human GABA-Aalpha3 receptor plus beta-3-gamma-2 expressed in L(tk-) cells by modulation of chloride ion flux relative to chlordiazepoxide
Format: functional, cell-based

For this compound ( CC(C)(O)c1ccn2c(-c3ccc(F)c(-c4ccc(F)cn4)c3)cnc2n1 ), measured Efficacy is 0.57

For this compound ( CC(C)(O)c1ccn2c(-c3ccc(F)c(-c4ncc(F)cc4F)c3)cnc2n1 ), measured Efficacy is 0.21

For this compound ( CC(C)(O)c1ccn2c(-c3ccc(F)c(-c4ccncc4)c3)cnc2n1 ), measured Efficacy is 0.47

For this compound ( CC(C)(O)c1ccn2c(-c3ccc(F)c(-c4ccncc4C#N)c3)cnc2n1 ), measured Efficacy is 0.59

For this compound ( CC(C)(O)c1ccn2c(-c3ccc(F)c(-c4ncccc4F)c3)cnc2n1 ), measured Efficacy is 0.68

For this compound ( CC(C)(O)c1ccn2c(-c3ccc(F)c(-c4ncccc4C#N)c3)cnc2n1 ), measured Efficacy is 0.52

For this compound ( CC(C)(O)c1ccn2c(-c3ccc(F)c(-c4cccnc4)c3)cnc2n1 ), measured Efficacy is 0.5
